- Assayed system: P2X7 receptor (Rattus norvegicus, UniProt Q64663)
- Construct: rP2X7 (IC50; nM); other: rP2X7; HEK-293 cells stably transfected with P2X7 receptor, Bz-ATP at EC80, Fluo-8 NW; potency
- Sequence (Q64663 whole entry): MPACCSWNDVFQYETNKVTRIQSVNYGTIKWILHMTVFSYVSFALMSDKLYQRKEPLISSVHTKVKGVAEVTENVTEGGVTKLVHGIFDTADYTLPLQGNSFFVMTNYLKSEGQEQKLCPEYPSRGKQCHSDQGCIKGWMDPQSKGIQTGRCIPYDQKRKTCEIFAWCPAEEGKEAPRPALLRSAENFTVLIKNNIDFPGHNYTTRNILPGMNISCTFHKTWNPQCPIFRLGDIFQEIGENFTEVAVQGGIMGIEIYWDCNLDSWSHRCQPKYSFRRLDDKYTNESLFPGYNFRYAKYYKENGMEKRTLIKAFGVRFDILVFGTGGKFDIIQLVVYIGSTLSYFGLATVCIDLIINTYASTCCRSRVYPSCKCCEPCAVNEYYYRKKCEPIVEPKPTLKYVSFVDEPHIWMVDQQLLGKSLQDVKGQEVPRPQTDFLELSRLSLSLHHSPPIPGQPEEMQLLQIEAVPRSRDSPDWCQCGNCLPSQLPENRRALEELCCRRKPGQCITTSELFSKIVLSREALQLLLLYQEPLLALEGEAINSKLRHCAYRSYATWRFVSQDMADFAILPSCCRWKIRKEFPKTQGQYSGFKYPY
- Experiment summary: Screen Quest Fluo-8 No Wash Calcium Assay (Bz-ATP evoked Ca2+ influx, FLIPR)
- Type: cell-based
- Condition details: rP2X7; HEK-293 cells stably transfected with P2X7 receptor, Bz-ATP at EC80, Fluo-8 NW; potency ranges A-D
Assay endpoint: IC50

Take a look at these entries with their results.
Cc1cc(Cn2c(CC3CCC(F)(F)CC3)noc2=O)no1 [Example 169] :: 1000 to 10000 nM
O=c1onc(Cc2c(F)cccc2Cl)n1CC1CCC(C(F)(F)F)CC1 (stereo not shown) [Example 184] :: < 200 nM
O=c1onc(Cc2cccc(Cl)c2Cl)n1Cc1ccc(F)cc1 [Example 71] :: 1000 to 10000 nM
O=c1onc(Cc2c(F)cccc2Cl)n1CCN1CCCCC1 [Example 143] :: 200 to 1000 nM
O=c1onc(Cc2c(F)cccc2Cl)n1Cc1cccc(C(F)(F)F)c1Cl [Example 58] :: 1000 to 10000 nM
O=c1onc(Cc2c(F)cccc2Cl)n1Cc1ccncc1 [Example 43] :: > 10000 nM
Cc1nn(C)c(C)c1Cc1noc(=O)n1Cc1ccc(F)cc1 [Example 212] :: > 10000 nM
O=c1onc(Cc2c(F)cccc2Cl)n1Cc1ccccc1 [Example 21] :: 1000 to 10000 nM
COc1ccccc1Cn1c(Cc2c(F)cccc2Cl)noc1=O [Example 28] :: > 10000 nM

Now for another entry.
Record summary for Cc1noc(Cn2c(CC3CCC(F)(F)CC3)noc2=O)n1 [Example 197] : reported IC50 = > 10000 nM

---

- Assayed system: UniProtKB Q99572
- Experiment summary: Screen Quest Fluo-8 No Wash Calcium Assay (Bz-ATP evoked Ca2+ influx, FLIPR)
- Type: cell-based
- Design: hP2X7 (IC50; nM); other: hP2X7; HEK-293 cells stably transfected with P2X7 receptor, Bz-ATP at EC80, Fluo-8 NW; potency
- Condition details: hP2X7; HEK-293 cells stably transfected with P2X7 receptor, Bz-ATP at EC80, Fluo-8 NW; potency ranges A-D
IC50: recorded values

Recorded IC50, per entry:
O=c1onc(CCc2c(F)cccc2Cl)n1CC1CCC(F)(F)CC1 :: 200 to 1000 nM
O=c1snc(CC2CCC(F)(F)CC2)n1Cc1c(F)cccc1Cl :: < 200 nM
CCC#CCn1c(Cc2c(F)cccc2Cl)noc1=O :: 1000 to 10000 nM

Measured IC50 of O=c1onc(Cc2ccccc2F)n1CC1CCCCC1 : 200 to 1000 nM

O=c1onc(Cc2c(F)cccc2Cl)n1Cc1ncccn1 yielded IC50 of > 10000 nM

---

- Assayed system: P2X7 receptor (Homo sapiens, UniProt Q99572)
- Sequence (Q99572 whole entry): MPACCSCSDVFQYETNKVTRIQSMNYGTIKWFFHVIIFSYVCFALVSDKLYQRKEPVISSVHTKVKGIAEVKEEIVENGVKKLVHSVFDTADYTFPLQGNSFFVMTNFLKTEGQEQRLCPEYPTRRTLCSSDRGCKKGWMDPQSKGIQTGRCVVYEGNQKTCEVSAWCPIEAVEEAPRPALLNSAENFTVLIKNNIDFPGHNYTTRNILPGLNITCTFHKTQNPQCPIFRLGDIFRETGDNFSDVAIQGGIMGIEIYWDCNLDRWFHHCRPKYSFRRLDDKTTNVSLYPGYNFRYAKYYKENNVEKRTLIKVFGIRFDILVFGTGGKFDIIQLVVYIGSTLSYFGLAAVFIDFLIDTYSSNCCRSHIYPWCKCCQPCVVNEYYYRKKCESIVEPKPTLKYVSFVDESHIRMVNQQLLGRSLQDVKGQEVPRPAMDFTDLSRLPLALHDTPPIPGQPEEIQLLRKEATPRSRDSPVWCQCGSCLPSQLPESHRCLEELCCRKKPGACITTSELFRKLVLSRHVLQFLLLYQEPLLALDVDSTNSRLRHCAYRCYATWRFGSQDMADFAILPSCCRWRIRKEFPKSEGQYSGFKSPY
- Experiment summary: Screen Quest Fluo-8 No Wash Calcium Assay (Bz-ATP evoked Ca2+ influx, FLIPR)
- Format: cell-based
- Set-up: hP2X7 (IC50; nM); other: hP2X7; HEK-293 cells stably transfected with P2X7 receptor, Bz-ATP at EC80, Fluo-8 NW; potency
- Condition details: hP2X7; HEK-293 cells stably transfected with P2X7 receptor, Bz-ATP at EC80, Fluo-8 NW; potency ranges A-D
Assay endpoint: IC50

Some solved cases for reference:
CC#CCn1c(Cc2c(F)cccc2Cl)noc1=O [Example 95] :: > 10000 nM
COc1ccc(Cc2noc(=O)n2CC2CCC(F)(F)CC2)cc1 [Example 154] :: 1000 to 10000 nM
O=c1onc(CN2CCC(F)(F)CC2)n1CC1CCC(F)(F)CC1 [Example 223] :: > 10000 nM
O=c1onc(Cc2c(F)cccc2Cl)n1CC1CCC(F)(F)C1 (single isomer, unassigned) [Example 149] :: < 200 nM
O=c1onc(Cc2ccccc2)n1CC1CCC(F)(F)CC1 [Example 161] :: 200 to 1000 nM
CC1CCCCC1Cn1c(Cc2c(F)cccc2Cl)noc1=O (stereo not drawn) [Example 87] :: < 200 nM

Just so you know, measured IC50 for O=c1onc(CN2CCCC(F)(F)C2)n1Cc1c(F)cccc1Cl [Example 224] came out at 200 to 1000 nM

// sample O=c1onc(Cc2c(F)cccc2Cl)n1CC1CCC(F)(F)CC1 [Example 84] , its IC50 was < 200 nM

response.value for O=c1onc(Cc2c(F)cccc2Cl)n1Cc1cccc2ccccc12 [Example 29] (field: IC50) = 1000 to 10000 nM

IC50 reported for this molecule O=c1onc(Cc2ccc(F)cc2F)n1Cc1c(F)cccc1Cl [Example 15] : 1000 to 10000 nM

Value of measured IC50 for the entry Cc1nn(C)c(C)c1Cc1noc(=O)n1Cc1c(F)cccc1Cl [Example 213] : 1000 to 10000 nM

IC50 for O=c1onc(Cc2cccc(C(F)(F)F)c2Cl)n1Cc1c(F)cccc1Cl [Example 16] is 1000 to 10000 nM

Lab book: IC50 of O=c1onc(Cc2c(F)cccc2Cl)n1CC1CCCCC1 [Example 82] noted as < 200 nM

---

- Assayed system: P2X7 receptor (Homo sapiens, UniProt Q99572)
- Experiment summary: YO-PRO-1 uptake assay
- Format: cell-based
- Set-up: expressed in transfected cells
- Condition details: HEK-293 cells stably transfected with P2X7 receptor; Bz-ATP EC80 (30 μM); Low Divalent Cation Assay Buffer
Quick reference: log10 of IC50 of the listed items.
Scale: decimal log of IC50, IC50 in nM.

Solved entries:
O=c1onc(Cc2ccc(F)cc2Cl)n1Cc1ccc(F)cc1 :: 2.83
O=c1onc(Cc2cccc(F)c2)n1Cc1c(F)cccc1Cl :: 2.79
CC1(C)CCCCC1Cn1c(Cc2c(F)cccc2Cl)noc1=O (centres unmarked) :: 2.15
O=c1onc(Cc2c(F)cccc2Cl)n1Cc1ccc(F)cc1Cl :: 2.56

Short answer for O=c1onc(Cc2c(F)cccc2Cl)n1CC1CCCCCC1 : log10 of IC50 was 1.62

---

- Assayed system: P2X7 receptor (Mus musculus, UniProt Q9Z1M0)
- Construct: mP2X7 (IC50; nM); other: mP2X7; HEK-293 cells stably transfected with P2X7 receptor, Bz-ATP at EC80, Fluo-8 NW; potency
- Sequence (Q9Z1M0 whole entry): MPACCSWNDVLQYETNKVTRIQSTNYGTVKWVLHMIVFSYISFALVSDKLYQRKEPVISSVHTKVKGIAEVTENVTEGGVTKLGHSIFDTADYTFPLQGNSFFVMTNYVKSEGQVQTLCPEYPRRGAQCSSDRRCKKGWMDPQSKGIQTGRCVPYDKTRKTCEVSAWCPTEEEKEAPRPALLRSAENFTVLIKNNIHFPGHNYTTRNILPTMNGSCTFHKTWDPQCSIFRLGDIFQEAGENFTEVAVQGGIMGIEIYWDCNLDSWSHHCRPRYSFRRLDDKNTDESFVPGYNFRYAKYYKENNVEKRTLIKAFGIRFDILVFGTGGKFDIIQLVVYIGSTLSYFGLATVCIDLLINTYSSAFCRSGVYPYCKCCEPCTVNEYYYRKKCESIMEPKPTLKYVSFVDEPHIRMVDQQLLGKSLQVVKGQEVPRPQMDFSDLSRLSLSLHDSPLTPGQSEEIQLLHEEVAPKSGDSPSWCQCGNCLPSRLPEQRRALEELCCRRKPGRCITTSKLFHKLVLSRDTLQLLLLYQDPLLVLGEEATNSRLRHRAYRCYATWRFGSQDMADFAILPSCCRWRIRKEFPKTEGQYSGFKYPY
- Experiment summary: Screen Quest Fluo-8 No Wash Calcium Assay (Bz-ATP evoked Ca2+ influx, FLIPR)
- Assay type: cell-based
- Condition details: mP2X7; HEK-293 cells stably transfected with P2X7 receptor, Bz-ATP at EC80, Fluo-8 NW; potency ranges A-D
Parameter: IC50. Scope: all listed entries.

# count of solved cases: 2
O=c1onc(CN2CCCC(F)(F)C2)n1Cc1ccc(F)cc1 :: > 10000 nM
O=c1onc(CC2CCC(F)(F)CC2)n1CC1CCCCC1 :: > 10000 nM

For record O=c1onc(CC2CCC(F)(F)CC2)n1CCc1ccccc1 the listed IC50 is > 10000 nM

---

- Assayed system: P2X7 receptor (Mus musculus)
- Construct: mP2X7 (IC50; nM); other: mP2X7; HEK-293 cells stably transfected with P2X7 receptor, Bz-ATP at EC80, Fluo-8 NW; potency
- Experiment summary: Screen Quest Fluo-8 No Wash Calcium Assay (Bz-ATP evoked Ca2+ influx, FLIPR)
- Format: cell-based
- Condition details: mP2X7; HEK-293 cells stably transfected with P2X7 receptor, Bz-ATP at EC80, Fluo-8 NW; potency ranges A-D
Assay endpoint: IC50

See these solved cases before continuing.
CC(C)(c1c(F)cccc1Cl)c1noc(=O)n1Cc1ccc(F)cc1 :: > 10000 nM
O=c1onc(CN2CCOc3ccccc32)n1CC1CCCCC1 :: < 200 nM
O=c1onc(C(O)c2cccc(C(F)(F)F)c2Cl)n1Cc1c(F)cccc1Cl (stereo not drawn) :: > 10000 nM
Cc1nc(C(F)(F)F)ccc1Cn1c(Cc2c(F)cccc2Cl)noc1=O :: > 10000 nM
COc1ccc(Cn2c(Cc3ccc(F)cc3)noc2=O)c(OC)c1 :: > 10000 nM

// field: IC50; key: O=c1onc(CN2CCOc3ccccc32)n1Cc1c(F)cccc1Cl ; value = 1000 to 10000 nM

Reported IC50 of O=c1onc(CN2CCC(F)(F)CC2)n1Cc1ccc(F)cc1 : 1000 to 10000 nM

get_value(item= O=c1onc(Cc2c(F)cccc2Cl)n1CC1CCC(F)(F)CC1 , readout=IC50) returns < 200 nM

The molecule listed as O=c1onc(Cc2ccccc2F)n1Cc1ccc(F)cc1 shows IC50 equal to 1000 to 10000 nM

---

- Assayed system: UniProt Q99572
- Experiment summary: Automated patch-clamp (QPatch16X) P2X7 channel assay
- Assay type: cell-based
- Parameters: expressed in transfected cells; host or cells: HEK-293
- Condition details: HEK-293 cells expressing P2X7 channels; whole-cell, held at -80 mV; 100 microM BzATP; compound 1, 10, 100 and 1000 nM; read-out: Q-Patch (IC50)
pIC50: −log10 of the molar value.
Classify as follows. Reported pIC50 greater than or equal to 7: Fulfilled. Reported pIC50 below: Not fulfilled.

Solved cases below.
O=c1onc(Cc2c(F)cccc2Cl)n1Cc1ccc(C(F)(F)F)o1 [Example 66] :: Not fulfilled
O=c1onc(Cc2ccc(F)cc2Cl)n1Cc1ccc(F)cc1 [Example 73] :: Not fulfilled
O=c1onc(Cc2c(F)cccc2Cl)n1CC1CCC(F)(F)C1 (racemic) [Example 128] :: Fulfilled
O=c1onc(Cc2c(F)cccc2Cl)n1CC1CCC(F)(F)CC1 [Example 84] :: Fulfilled
O=c1onc(CC2CCC(F)(F)CC2)n1Cc1c(F)cccc1Cl [Example 132] :: Fulfilled
O=c1onc(Cc2ccccc2Cl)n1Cc1ccc(F)cc1 [Example 76] :: Not fulfilled
CC1CCCCC1Cn1c(Cc2c(F)cccc2Cl)noc1=O (centres unmarked) [Example 87] :: Fulfilled
O=c1onc(Cc2c(F)cccc2Cl)n1Cc1cccc(Cl)c1Cl [Example 59] :: Not fulfilled

IN: Decide: is the reported value of pIC50 for O=c1onc(Cc2c(F)cccc2Cl)n1CC1CCCCC1 [Example 82] equal to or greater than 7?
OUT: Fulfilled

IN: Could you verify whether the entry CC(c1ccccc1)n1c(Cc2c(F)cccc2Cl)noc1=O (centres unmarked) [Example 49] shows pIC50 of no less than 7?
OUT: Not fulfilled

Entry source: patent US11623919B2
